Please provide measured EC50 for the entries that follow.
biological target: hGcgR (Homo sapiens, UniProt P47871); assay: Functional cAMP activation in the presence of 0.1% casein (no HSA); assay type: cell-based; details: in the presence of 0.1% casein (no HSA); geometric mean; read-out: Relative cAMP EC50, hGcgR;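 note: intracellular cAMP rise after 30 min at 37 °C, read by HTRF against a cAMP standard curve, scaled from buffer only (0%) to maximal control ligand response (100%)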
Sequence (P47871 26-477): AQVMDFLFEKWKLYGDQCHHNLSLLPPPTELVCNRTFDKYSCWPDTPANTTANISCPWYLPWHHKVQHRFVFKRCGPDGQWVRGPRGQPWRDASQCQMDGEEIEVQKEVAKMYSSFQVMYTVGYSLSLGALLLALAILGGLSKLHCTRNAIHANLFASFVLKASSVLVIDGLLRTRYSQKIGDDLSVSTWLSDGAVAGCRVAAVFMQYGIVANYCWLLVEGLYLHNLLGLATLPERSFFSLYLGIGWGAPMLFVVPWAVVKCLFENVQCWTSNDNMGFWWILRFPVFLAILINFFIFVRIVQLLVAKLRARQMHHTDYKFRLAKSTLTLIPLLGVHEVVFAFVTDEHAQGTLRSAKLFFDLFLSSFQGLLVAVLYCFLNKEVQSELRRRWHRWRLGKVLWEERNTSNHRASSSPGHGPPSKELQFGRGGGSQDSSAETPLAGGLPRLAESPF
Starred links: 1 amine or outer side, 2 acyl side, 3 side chain; linkers in the order of their positions; H or OH if unused. Non-standard residues stand in square brackets, D forms with d. Groups on a side chain read outwards from the residue. *: point of attachment. C18 diacid = O=C(O)CCCCCCCCCCCCCCCCC(=O)*; γGlu = O=C(O)[C@H](CCC(=O)[*:2])N[*:1]; αMe4Pal = C[C@](N)(Cc1ccncc1)C(=O)O; 4Pal = N[C@@H](Cc1ccncc1)C(=O)O; αMeL = CC(C)C[C@](C)(N)C(=O)O; Orn = NCCC[C@H](N)C(=O)O; AEEA = NCCOCCOCC(=O)O; Aib = CC(C)(N)C(=O)O
Express the result in nM but write the number alone.

In: Suppose we examine the substance H-Y[Aib]QGTFTSDFS[Orn][αMeL]LDKK([AEEA-γGlu-C18 diacid])AQ[Aib]AFIEYLIE[Aib]SPSSGAPPPSGS-NH2 [Example 804] ; what EC50 value has been reported?
Out: 11.5

In: Please give the result for H-Y[Aib]QGTFTSD[4Pal]SR[αMeL]LDKK([AEEA-AEEA-γGlu-C18 diacid])AQ[αMe4Pal]AFIEYLIE[Aib]GPSSGAPPPSGS-NH2 [Example 815] too.
Out: 4.13

In: Next substance up: H-Y[Aib]QGTFTSD[4Pal]SQ[αMeL]LDKK([AEEA-γGlu-C18 diacid])AQ[αMe4Pal]AFIEYLIE[Aib]GESSGAPPPSGS-NH2 [Example 226]
Out: 3.08

* * *

target: hGLP-1R (Homo sapiens, UniProt P43220); test: Functional cAMP activity in the presence of 1% HSA; type: cell-based
Sequence (P43220 24-463): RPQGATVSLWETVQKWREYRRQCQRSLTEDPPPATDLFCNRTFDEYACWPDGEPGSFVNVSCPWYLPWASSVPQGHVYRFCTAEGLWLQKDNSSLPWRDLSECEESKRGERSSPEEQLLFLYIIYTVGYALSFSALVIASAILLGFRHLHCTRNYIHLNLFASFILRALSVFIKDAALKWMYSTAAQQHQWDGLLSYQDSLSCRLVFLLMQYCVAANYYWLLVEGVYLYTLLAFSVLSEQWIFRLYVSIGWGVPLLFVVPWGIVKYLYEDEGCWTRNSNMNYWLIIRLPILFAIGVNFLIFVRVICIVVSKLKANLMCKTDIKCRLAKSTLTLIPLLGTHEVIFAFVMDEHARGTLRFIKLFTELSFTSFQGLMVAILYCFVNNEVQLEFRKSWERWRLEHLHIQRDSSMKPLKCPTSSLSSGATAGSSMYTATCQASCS
Starred links: 1 amine or outer side, 2 acyl side, 3 side chain; linkers in the order of their positions; H or OH if unused. Non-standard residues stand in square brackets, D forms with d. Groups on a side chain read outwards from the residue. No end group written: not given here. *: point of attachment. C20 diacid = O=C(O)CCCCCCCCCCCCCCCCCCC(=O)*; C18 diacid = O=C(O)CCCCCCCCCCCCCCCCC(=O)*; γGlu = O=C(O)[C@H](CCC(=O)[*:2])N[*:1]; αMe4Pal = C[C@](N)(Cc1ccncc1)C(=O)O; αMeL = CC(C)C[C@](C)(N)C(=O)O; AEEA = NCCOCCOCC(=O)O; Aib = CC(C)(N)C(=O)O
readout_type: pEC50
Conceptually, pEC50 converts a concentration in mol/L into minus its log10.

In: Any idea what its pEC50 is? The substance is H-Y[Aib]QGTFTSDFSR[αMeL]LDKK([AEEA-γGlu-C18 diacid])AQ[αMe4Pal]AFIEYLIE[Aib]GESSGAPPPSGE-NH2 [Example 231]
Out: 6.65

In: Another substance to look at: H-Y[Aib]QGTFTSDFSK[αMeL]LDKK([AEEA-γGlu-C20 diacid])AQQAFIEYLLA[Aib]GPSSGAPPPSEG-NH2 [Example 30]
Out: 6.09

In: Moving on to the next substance: Y[Aib]QGTFTSDFSQ[αMeL]LDKK([AEEA-γGlu-C18 diacid])AQ[αMe4Pal]AFIEYLIE[Aib]GESSGAPPPSGS-NH2 [Example 232]
Out: 6.65

In: H-Y[Aib]QGTFTSDFSK[αMeL]LDKK([AEEA-γGlu-C20 diacid])AQQAFIEYLLA[Aib]GPSSGEPPPSEG-NH2 [Example 19] , same question.
Out: 5.88

In: Please do the same for H-Y[Aib]QGTFTSDFSR[αMeL]LDKK([AEEA-γGlu-C20 diacid])AQ[Aib]AFIEYLLE[Aib]GPSSGAPPPGGS-NH2 [Example 42] as well.
Out: 6.15

In: # repeat for H-Y[Aib]QGTFTSDFSR[αMeL]LDKK([AEEA-AEEA-γGlu-C18 diacid])AQ[Aib]AFIEYLLE[Aib]GPSSGAPPPSGS-NH2 [Example 80]
Out: 6.20

* * *

molecular target: hGIPR (Homo sapiens, UniProt P48546); assay: Functional cAMP activation in the presence of 0.1% casein (no HSA); assay type: cell-based; settings: read-out: Relative cAMP EC50, hGIPR;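 note: intracellular cAMP rise after 30 min at 37 °C read by HTRF against a standard curve, scaled between buffer alone (0%) and top control ligand concentration (100%), four-parameter fit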
Sequence (P48546 22-466): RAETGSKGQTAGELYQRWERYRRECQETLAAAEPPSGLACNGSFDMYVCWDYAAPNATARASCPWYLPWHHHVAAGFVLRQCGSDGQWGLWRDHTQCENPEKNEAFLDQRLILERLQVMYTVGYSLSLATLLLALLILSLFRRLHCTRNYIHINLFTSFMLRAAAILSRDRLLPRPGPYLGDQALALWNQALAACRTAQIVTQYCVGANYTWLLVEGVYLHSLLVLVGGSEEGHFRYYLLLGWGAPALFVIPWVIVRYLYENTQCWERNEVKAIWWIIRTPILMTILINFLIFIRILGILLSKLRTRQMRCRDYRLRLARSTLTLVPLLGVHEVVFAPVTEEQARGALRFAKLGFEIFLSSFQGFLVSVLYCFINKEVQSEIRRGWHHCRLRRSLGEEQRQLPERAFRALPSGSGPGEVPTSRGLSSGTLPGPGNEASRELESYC
Starred links: 1 amine or outer side, 2 acyl side, 3 side chain; linkers in the order of their positions; H or OH if unused. Non-standard residues stand in square brackets, D forms with d. Groups on a side chain read outwards from the residue. No end group written: not given here. *: point of attachment. C18 diacid = O=C(O)CCCCCCCCCCCCCCCCC(=O)*; αMePhe(2-F) = C[C@](N)(Cc1ccccc1F)C(=O)O; γGlu = O=C(O)[C@H](CCC(=O)[*:2])N[*:1]; αMe4Pal = C[C@](N)(Cc1ccncc1)C(=O)O; αMeY = C[C@](N)(Cc1ccc(O)cc1)C(=O)O; 4Pal = N[C@@H](Cc1ccncc1)C(=O)O; Aad = N[C@@H](CCCC(=O)O)C(=O)O; αMeL = CC(C)C[C@](C)(N)C(=O)O; αMeS = C[C@](N)(CO)C(=O)O; Orn = NCCC[C@H](N)C(=O)O; AEEA = NCCOCCOCC(=O)O; Aib = CC(C)(N)C(=O)O
# if measured EC50 < 0.02 nM: criterion met  # else: criterion not met

In: Say whether its EC50 is strictly beneath 0.02 nM. Entry: H-Y[Aib]QGT[αMePhe(2-F)]TSD[4Pal][αMeS]ILLD[Orn]K([γGlu-γGlu-C18 diacid])AQ[Aib][Orn]FI[dE]YLIEGGPSSGEPPPEGAEE-NH2 [Example 604]
Out: criterion not met

In: And the next one, H-Y[Aib]QGT[αMePhe(2-F)]TSD[4Pal]SI[αMeL]LD[Orn]K([γGlu-γGlu-C18 diacid])AQ[αMe4Pal]EFI[dE][αMeY]LIEGGPSSGAPPPSGE-NH2 [Example 616] ?
Out: criterion met

In: Now the substance H-Y[Aib]QGT[αMePhe(2-F)]TSD[4Pal]SILLDKK([AEEA-γGlu-C18 diacid])AQ[Aib]AFIEYLEEGGPSSGAPPPSGTGE-NH2 [Example 662]
Out: criterion not met

In: And then H-Y[Aib]QGT[αMePhe(2-F)]TSD[4Pal]SI[αMeL]LD[Orn]K([AEEA-γGlu-C18 diacid])AQ[Aib][Orn]FIEYLIEGGPSSGEPPPSEG-NH2 [Example 489] , what is it?
Out: criterion met

In: Do the same for H-Y[Aib]QGT[αMePhe(2-F)]TSD[4Pal]SI[αMeL]LD[Orn]K([AEEA-γGlu-C18 diacid])AQ[αMe4Pal][Orn]FI[dE][αMeY]LIEGGPSSGAPPPESE-NH2 [Example 755] please
Out: criterion met

In: Another substance to check: H-Y[Aib]QGT[αMePhe(2-F)]TSD[4Pal][αMeS]I[αMeL]LD[Orn]K([γGlu-Glu-C18 diacid])AQ[Aib][Orn]FI[dE][αMeY]LSEGGPSSGEPPPSGTE-NH2 [Example 565]
Out: criterion not met

In: Would you kindly repeat that for H-Y[Aib]QGT[αMePhe(2-F)]TSD[4Pal]SILLDKK([AEEA-γGlu-C18 diacid])AQ[Aib]AFIEYL[Aad]EGGPSSGAPPPSGTGE-NH2 [Example 663] ?
Out: criterion not met

In: How about this substance: H-Y[Aib]QGT[αMePhe(2-F)]TSD[4Pal][αMeS]I[αMeL]LD[Orn]K([γGlu-γGlu-C18 diacid])AQ[Aib][Orn]FI[dE][αMeY]LQEGGPSSGEPPPEGEEE-NH2 [Example 588]
Out: criterion not met

In: Would you mind doing H-Y[Aib]QGT[αMePhe(2-F)]TSD[4Pal][αMeS]I[αMeL]LD[Orn]K([AEEA-γGlu-C18 diacid])AQ[αMe4Pal]EFI[dE][αMeY]LIEGGPSSGAPPPSGGGE-NH2 [Example 741] as well?
Out: criterion met

In: Please answer likewise for Y[Aib]QGT[αMePhe(2-F)]TSD[4Pal]SI[αMeL]LD[Orn]K([AEEA-γGlu-C18 diacid])AQ[αMe4Pal][Orn]FI[dE][αMeY]LIEGGPSSGAPPPEGGGE-NH2 [Example 758]
Out: criterion not met

In: Now the same for H-Y[Aib]QGT[αMePhe(2-F)]TSD[4Pal][αMeS]I[αMeL]LD[Orn]K([γGlu-γGlu-C18 diacid])AQ[Aib]NFI[dE][αMeY]LIEGGPSSGEPEPEEG-NH2 [Example 474]
Out: criterion met

In: Then H-Y[Aib]QGT[αMePhe(2-F)]TSD[4Pal][αMeS]I[αMeL]LD[Orn]K([γGlu-γGlu-C18 diacid])AQ[Aib][Orn]FI[dE][αMeY]LSEGGPSSGEPPPSGGEE-NH2 [Example 568] ?
Out: criterion not met

In: Also H-Y[Aib]QGT[αMePhe(2-F)]TSD[4Pal][αMeS]I[αMeL]LD[Orn]K([γGlu-γGlu-C18 diacid])AQ[αMe4Pal]EFI[dE][αMeY]LIEGGPSSGEPPPSGSE-NH2 [Example 716] , if possible.
Out: criterion met

In: # iterate: H-Y[Aib]QGT[αMePhe(2-F)]TSD[4Pal][αMeS]I[αMeL]LD[Orn]K([AEEA-γGlu-C18 diacid])AQ[αMe4Pal]EFI[dE][αMeY]LIEGGPSSGAPPPSGTGE-NH2 [Example 714]
Out: criterion met

In: Proceed to H-Y[Aib]QGT[αMePhe(2-F)]TSD[4Pal][αMeS]I[αMeL]LD[Orn]K([AEEA-γGlu-C18 diacid])AQ[Aib][Orn]FI[dE]YLIEGGPSSGEPPPSGTE-NH2 [Example 501]
Out: criterion not met

In: Now give it for Y[Aib]QGT[αMePhe(2-F)]TSD[4Pal][αMeS]I[αMeL]LD[Orn]K([AEEA-γGlu-C18 diacid])AQ[αMe4Pal]EFI[dE][αMeY]LVEGGPSSGEPPPSGGGE-NH2 [Example 735] too.
Out: criterion met

In: Also check Y[Aib]QGT[αMePhe(2-F)]TSD[4Pal]SI[αMeL]LD[Orn]K([AEEA-γGlu-C18 diacid])AQ[αMe4Pal][Orn]FI[dE][αMeY]LIEGGPSSGDPPPEAE-NH2 [Example 728]
Out: criterion met

In: What do we get for H-Y[Aib]QGT[αMePhe(2-F)]TSD[4Pal]SILLD[Orn]K([γGlu-γGlu-C18 diacid])AQ[αMe4Pal][Orn]FI[dE]YLIEGGPSSGEPPPSGTEE-NH2 [Example 584] ?
Out: criterion not met

In: Okay, and H-Y[Aib]QGT[αMePhe(2-F)]TSD[4Pal][αMeS]ILLD[Orn]K([γGlu-γGlu-C18 diacid])AQ[Aib][Orn]FI[dE][αMeY]LQEGGPSSGEPPPEGAEE-NH2 [Example 574] ?
Out: criterion not met
